Attribution: patent US20210261668A1

- target_system: T1, cynomolgus NKG2D-Fc fusion protein (cynomolgus; human, UniProt P61252 73-216)
- T1 construct: extracellular domain; also called cynomolgus recombinant NKG2D-Fc; cynomolgus recombinant NKG2D; not shown: human IgG1 Fc domain
- T1 sequence (looked up): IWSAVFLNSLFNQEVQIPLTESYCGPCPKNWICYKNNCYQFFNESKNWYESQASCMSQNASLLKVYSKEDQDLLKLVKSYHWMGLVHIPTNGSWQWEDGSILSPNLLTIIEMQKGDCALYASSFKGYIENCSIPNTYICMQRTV
- experimental_details: ELISA on coated NKG2D-Fc

{"binder": "ADI-27740 (antibody, V domains shown, also called A40) VH: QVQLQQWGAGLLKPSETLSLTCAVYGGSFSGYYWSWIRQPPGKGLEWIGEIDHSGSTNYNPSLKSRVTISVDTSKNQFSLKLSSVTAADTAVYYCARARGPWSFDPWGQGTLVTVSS VL: DIQMTQSPSTLSASVGDRVTITCRASQSIGSWLAWYQQKPGKAPKLLIYKASSLESGVPSRFSGSGSGTEFTLTISSLQPDDFATYYCQQYHSFYTFGGGTKVEIK", "binding result": "binds"}
